Consider the following compounds and their measured growth readings.
- Test system: K-562 leukemia
- EXPERIMENT_DESCRIPTION: NCI-60 one-dose screen, 48 h (100 = growth as untreated, 0 = no growth, -100 = all killed)
- MEASUREMENT_PARAMETERS: 10 µM unless noted
This is part of a sample that, as a whole, favours compounds with a hit. Of some 83,000 tested, about 20% had one in any assay.
# unit: % | format: bare number

Please review the entries below; each comes with its answer.
| COMPOUND | TESTED_SYSTEM | growth [%] |
| --- | --- | --- |
| CCCCn1c(-c2ccc(C(=O)O/N=C(\N)c3ccc4c(c3)OCO4)cc2)nc(-c2ccccc2)c1-c1ccccc1 | K-562 leukemia | -5.48 |
| O=C1NC(=S)NC(=O)C1CC(=O)n1c(-c2ccccc2)nc2ccccc21 | K-562 leukemia | 98.6 |
| CCN(CC)c1ccc(-c2cc(-c3cc(OC)c(OC)c(OC)c3)nc(N3CCOCC3)c2C#N)cc1 | K-562 leukemia | 1.69 |
| Cn1c(O)c(N=NC(=O)c2cc(-c3ccccc3)on2)c2ccccc21 | K-562 leukemia | 116 |
| Nc1n[nH]c2ccc([C@@H]3Nc4ccc5[nH]ncc5c4[C@H]4C5C=CC(C5)[C@@H]34)cc12 (stereo not given in full) | K-562 leukemia | 8.61 |

O=C(NCCN1CCOCC1)Nc1ccc(-c2cc3c(Nc4ccc(Oc5cccc(C(F)(F)F)c5)c(Cl)c4)ncnc3s2)cc1 has a reported growth of -29.5

CC1(C)CC[C@]2(C(=O)Nc3ccccn3)CC[C@]3(C)C(=CC[C@@H]4[C@@]5(C)C/C(=C/c6cccnc6)C(=O)C(C)(C)[C@@H]5CC[C@]43C)[C@H]2C1 has a reported growth of 18.7

O=C(CCN1C(=O)/C(=C/c2ccc(Cl)cc2)SC1=S)NCCCN1CCOCC1 has a reported growth of 97.8

COc1ccc(-c2nn(-c3ccc(Cl)cc3)cc2-c2nc3ccccc3[nH]2)cc1 has a reported growth of 89

CCN(CC)S(=O)(=O)c1ccc(OC)c(NC(=O)c2[nH]c(C)c3c2CCCCC3=O)c1 has a reported growth of 30

###

- Tested on: NCI-H322M lung
- EXPERIMENT_DESCRIPTION: NCI-60 one-dose screen, 48 h (100 = growth as untreated, 0 = no growth, -100 = all killed)
- MEASUREMENT_PARAMETERS: 10 µM unless noted
Compounds without any hit were thinned out: in the full panel of roughly 83,000, 20% have a hit.
Entries get a class label from measured growth. See ranges: low-valued = under 30%, mid-valued = from 30% up to 50%, high-valued = 50% and over

Band for CC(C)(C)CC(C)(C)c1ccc(OCCOCC[N+](C)(C)Cc2ccccc2)cc1 ?
mid-valued

Band for O=C1Nc2c(ccc(Cl)c2Cl)/C1=C\c1cc(C(F)(F)F)cc(C(F)(F)F)c1 ?
high-valued

###

- Test system: TK-10 renal
- EXPERIMENT_DESCRIPTION: NCI-60 one-dose screen, 48 h
- MEASUREMENT_PARAMETERS: 10 µM unless noted
About 83,000 compounds went through this panel and 20% of them were active in at least one assay; those are over-represented in the sample as a whole. The source made the active and inactive calls. Rule for the calls: active = growth percent below 10; inactive = the rest.
# output must be one of active, inactive

Previously resolved entries follow.
| COMPOUND | TESTED_SYSTEM | ASSIGNED_LABEL |
| --- | --- | --- |
| O=[N+]([O-])c1ccc(Nc2nc(NCCN3CCOCC3)ncc2[N+](=O)[O-])cc1 | TK-10 renal | inactive |
| CCCN1CCN(c2ccc3nc(-c4ccc5nc(-c6ccc(OCC)cc6)[nH]c5c4)[nH]c3c2)CC1 | TK-10 renal | inactive |
| CCc1nc(N)nc(N)c1C#CC(C)c1ccc(-c2ccncc2)cc1Cl (stereo unspecified) | TK-10 renal | inactive |

What is the recorded call for this compound in the test? COc1cc(/C=C/C(=O)c2cccnc2Nc2ccc(F)cc2)cc(OC)c1OC
inactive

What is the recorded call for this compound in the test? CN(C)c1ccc(N=Nc2ccc(Br)cn2)c(O)c1
inactive

What is the recorded call for this compound in the test? COC(=O)c1ccc(NC(=O)c2ccc(-c3cccc([N+](=O)[O-])c3)o2)cc1
inactive

###

Consider the following molecules and their measured growth readings.
- Test system: MDA-MB-435 melanoma
- EXPERIMENT_DESCRIPTION: NCI-60 one-dose screen, 48 h (100 = growth as untreated, 0 = no growth, -100 = all killed)
- MEASUREMENT_PARAMETERS: 10 µM unless noted
This is part of a sample that, as a whole, favours compounds with a hit. Of some 83,000 tested, about 20% had one in any assay.
# unit: % | format: bare number

| MOLECULE | UNIT_LABEL | growth |
| --- | --- | --- |
| O=C1C=C(O)C(=O)C(CC2=C(O)C(=O)C=C(O)C2=O)=C1O | % | 100 |
| Cc1c(/C=C/[N+](=O)[O-])ccc2c1[nH]c1ccccc12 | % | -11.2 |

O=C1CC(=NCC(=O)n2c(-c3ccccc3)nc3ccccc32)NN1 has a reported growth of 105

COc1cc2c(cc1-c1c(C)noc1C)ncc1nc(-c3ccccn3)n([C@H](C)COC(F)F)c12 has a reported growth of 46.4

O=C(COc1ccc(/C=C2\CSc3ccccc3C2=O)cc1)Nc1nccs1 has a reported growth of 65.4

COc1ccc(O)c(N=Nc2nccs2)c1 has a reported growth of 104

CSc1ccc(-c2ccccc(=O)c2O)cc1 has a reported growth of 23.5

CCN=C1C=CC(=C(c2ccc(N)cc2)c2ccc(N(CC)CC)c(C)c2)C=C1 has a reported growth of -41.2

COc1cc(-c2nc(C(=O)NCC(=O)NO)nn2-c2ccc(Cl)cc2)cc(OC)c1OC has a reported growth of 100

OC(COc1cccc2ccccc12)CN1CCN(c2ccccc2Cl)CC1 (centres undefined) has a reported growth of 100

CCOc1ccc(-n2nc(C(=O)Nc3cc(OC)c(OC)c(OC)c3)nc2-c2cc(OC)c(OC)c(OC)c2)cc1 has a reported growth of 79.6

Cc1ncc(C(=O)Nc2ccc(CN3CCN(C)CC3)c(C(F)(F)F)c2)cc1C#Cc1cnc2cccnn12 has a reported growth of -54.1

N#Cc1cnn(-c2nc3c(Cl)cccc3s2)c1N has a reported growth of 87.1

O=C1Nc2c(ccc(Cl)c2Cl)/C1=C\c1cc(C(F)(F)F)cc(C(F)(F)F)c1 has a reported growth of -53.4

Nc1n[nH]c2cc(F)c([C@@H]3Nc4ccc5[nH]ncc5c4[C@H]4C5CCC(C5)[C@@H]34)cc12 (some centres undefined) has a reported growth of -15.3

C=C(C)C1CC(O)C2(C)CCCC3C2C1CC(C)C3(C)CC/C(C)=C/C(O)C1CCC(=O)c2c(OC)cc(OC)cc21 (centres undefined) has a reported growth of 41.7

COc1ccc(NC(=O)c2ccc(/C=C/C(=O)c3ncc[nH]3)cc2)cc1 has a reported growth of 67.1

C(=C\c1nccc2c1[nH]c1ccccc12)/c1ccccc1 has a reported growth of -38.9

###

- Test system: COLO 205 colon
- EXPERIMENT_DESCRIPTION: NCI-60 one-dose screen, 48 h
- MEASUREMENT_PARAMETERS: 10 µM unless noted
- Protocol: Cells are grown in 96 well plates and exposed to the test compound for 48 hours. Compounds are tested at a single concentration, which is 10^-5 M for most compounds. The reported endpoint is percent growth (GI% or GIPRCNT), where numbers from 0 - 100% represent growth inhibition, and numbers from -100% - 0 represent cell death. For example, a value of 40 represents 60% growth inhibition. A value of 0 means no net growth occurred over the course of the experiment. […]
Compounds without any hit were thinned out: in the full panel of roughly 83,000, 20% have a hit. The source made the active and inactive calls. Rule for the calls: active = growth percent below 10; inactive = the rest.
# output must be one of active, inactive

What is the recorded call for this compound in the test? OCCNc1nccc(N2CCN(c3ccnc4cc(Cl)ccc34)CC2)n1
inactive

What is the recorded call for this compound in the test? O=C1NC(=S)NC(=O)C1CC(=O)n1c(-c2ccccc2)nc2ccccc21
inactive

What is the recorded call for this compound in the test? Clc1ccc2c(NCCNc3nc(N4CCCCC4)nc4ccccc34)ccnc2c1
active

What is the recorded call for this compound in the test? COc1cc(C)c(C2C(C#N)=C(N)Oc3n[nH]c(-c4cccs4)c32)cc1C(C)C (stereo unspecified)
inactive

What is the recorded call for this compound in the test? CC(=O)O[C@H]1[C@@H]2OC(=O)C(CSc3ccccc3)[C@@H]2C[C@H]2O[C@]2(C)CC/C=C(\C)CCC[C@@H]1C (stereo partly specified)
inactive

What is the recorded call for this compound in the test? COc1ccc(/C=C/c2nc3ccccc3nc2/C=C/c2ccc(OC)cc2)cc1
inactive

What is the recorded call for this compound in the test? COc1ccc(CN2c3ccccc3Oc3ccccc32)cc1F
inactive

What is the recorded call for this compound in the test? C#CCOc1ccc2ncnc(NCc3cccc(NC(=O)CCl)c3)c2c1
inactive

What is the recorded call for this compound in the test? CCCCn1cnc2c(Sc3c([N+](=O)[O-])ncn3C)nc(N)nc21
inactive

What is the recorded call for this compound in the test? c1ccc(-c2cc3n4c(-c5ccccc5)nn(-c5ccccc5)c4cnc-3n2)cc1
inactive

What is the recorded call for this compound in the test? Cc1ccc(NS(=O)(=O)c2ccc(-c3cnc(C4CC4)o3)cc2)cc1C
active

What is the recorded call for this compound in the test? N#Cc1c(-c2ccc(Cl)cc2)nc(NN=Cc2ccco2)nc1N1CCOCC1
inactive

What is the recorded call for this compound in the test? Cc1ccc(OC(=O)c2ccc(Cl)cc2)cc1
inactive

What is the recorded call for this compound in the test? C=CC(COC(c1ccccc1)(c1ccccc1)c1ccccc1)N(CC)CC (stereo unspecified)
active

What is the recorded call for this compound in the test? Cc1ccc2c(c1)C(=O)/C(=C/c1cccc(OCC(=O)c3ccc(Cl)cc3)c1)CS2
inactive

What is the recorded call for this compound in the test? CCOC(=O)c1csc(NC(=O)COc2cccc(/C=C3\CSc4ccccc4C3=O)c2)n1
inactive

What is the recorded call for this compound in the test? COC(=O)c1ccc2oc(NC(=O)c3ccc(Nc4ccc([N+](=O)[O-])cc4C)c([N+](=O)[O-])c3)nc2c1
inactive
